- Measurement Notes: Half-life in Beagles dog at a dose of 1 mg/kg given intravenously
- Type: ADME, organism-based, Canis lupus familiaris
- Design: dose 1 mg/kg, route intravenous
- Condition Parameters: beagle, in vivo, iv
Assay Readout: half-life (min)
Reply with just the number (in min).

Given the compound CCNC(=O)[C@@H](NC(=O)Cc1ccccc1)[C@@H]1N[C@@H](C(=O)NCCNC(=O)[C@@H]2N[C@@H]([C@H](NC(=O)Cc3ccccc3)C(=O)NCC)SC2(C)C)C(C)(C)S1 , what is its reported half-life? 240

###

- Assayed System: Human immunodeficiency virus type 1 protease (Human immunodeficiency virus 1, UniProt Q72874)
- Measurement Notes: Inhibitory activity against HIV-1 Protease
IC50 less than 1 µM is 1; IC50 greater than or equal to 1 µM is 0.

Examples with answers:
{"Chem Smiles": "CN(C)C(=O)[C@@H](NC(=O)Cc1ccccc1)[C@@H]1N[C@@H](C(=O)NCCNC(=O)[C@@H]2N[C@@H]([C@H](NC(=O)Cc3ccccc3)C(=O)N(C)C)SC2(C)C)C(C)(C)S1", "Cat": 1}
{"Chem Smiles": "CCNC(=O)[C@@H](NC(=O)c1ccccc1Nc1ccccc1)[C@@H]1N[C@@H](C(=O)NCCNC(=O)[C@@H]2N[C@@H]([C@H](NC(=O)c3ccccc3Nc3ccccc3)C(=O)NCC)SC2(C)C)C(C)(C)S1", "Cat": 0}
{"Chem Smiles": "CC1(C)S[C@H](CNC(=O)Cc2ccccc2)N[C@H]1C(=O)NCCNC(=O)[C@@H]1N[C@@H](CNC(=O)Cc2ccccc2)SC1(C)C", "Cat": 0}
{"Chem Smiles": "CCNC(=O)[C@@H](NC(=O)Cc1ccccc1)[C@@H]1N[C@@H](C(=O)NCCNC(=O)[C@@H]2N[C@@H](CNC(=O)Cc3ccccc3)SC2(C)C)C(C)(C)S1", "Cat": 1}
{"Chem Smiles": "CC1(C)S[C@H]([C@@H](COC(=O)c2ccccc2)NC(=O)Cc2ccccc2)N[C@H]1C(=O)NCCNC(=O)[C@@H]1N[C@@H]([C@@H](COC(=O)c2ccccc2)NC(=O)Cc2ccccc2)SC1(C)C", "Cat": 1}

Just wondering, is IC50 of CCNC(=O)[C@@H](NC(=O)Cc1ccccc1)[C@@H]1N[C@@H](C(=O)NCCNC(=O)[C@@H]2NCSC2(C)C)C(C)(C)S1 below 1 µM? 0

Just wondering, is IC50 of CCNC(=O)[C@@H](NC(=O)c1c(-c2ccccc2)noc1C)[C@@H]1N[C@@H](C(=O)NCCNC(=O)[C@@H]2N[C@@H]([C@H](NC(=O)c3c(-c4ccccc4)noc3C)C(=O)NCC)SC2(C)C)C(C)(C)S1 below 1 µM? 1

Just wondering, is IC50 of CCNC(=O)[C@@H](NC(=O)Cc1ccccc1)[C@@H]1N[C@@H](C(=O)NCCNC(=O)[C@@H]2N[C@@H]([C@H](NC(=O)Cc3ccccc3)C(=O)NCC)SC2(C)C)C(C)(C)S1 below 1 µM? 0

Just wondering, is IC50 of CC1(C)S[C@H]([C@H](NC(=O)Cc2ccccc2)C(=O)NCC2CCCCC2)N[C@H]1C(=O)NCCNC(=O)[C@@H]1N[C@@H]([C@H](NC(=O)Cc2ccccc2)C(=O)NCC2CCCCC2)SC1(C)C below 1 µM? 1

Just wondering, is IC50 of CCNC(=O)[C@@H](NS(=O)(=O)Cc1ccccc1)[C@@H]1N[C@@H](C(=O)NCCNC(=O)[C@@H]2N[C@@H]([C@H](NS(=O)(=O)Cc3ccccc3)C(=O)NCC)SC2(C)C)C(C)(C)S1 below 1 µM? 1

###

Observed pIC50 values for Human immunodeficiency virus type 1 protease (Human immunodeficiency virus 1) are listed in what follows.
By convention, pIC50 is the negative base-10 log of a molar concentration.

Given the compound CCNC(=O)[C@@H](NC(=O)c1ccccc1Oc1ccccc1)[C@@H]1N[C@@H](C(=O)NCCNC(=O)[C@@H]2N[C@@H]([C@H](NC(=O)c3ccccc3Oc3ccccc3)C(=O)NCC)SC2(C)C)C(C)(C)S1 , what is its reported pIC50? 6.80

Given the compound CC1(C)S[C@H]([C@H](NC(=O)c2ccccc2-c2ccccc2)C(=O)NCC(=O)O)N[C@H]1C(=O)NCCNC(=O)[C@@H]1N[C@@H]([C@H](NC(=O)c2ccccc2-c2ccccc2)C(=O)NCC(=O)O)SC1(C)C , what is its reported pIC50? 7.41

Given the compound CCNC(=O)[C@@H](NC(=O)CC(C)C)[C@@H]1N[C@@H](C(=O)NCCNC(=O)[C@@H]2N[C@@H]([C@H](NC(=O)CC(C)C)C(=O)NCC)SC2(C)C)C(C)(C)S1 , what is its reported pIC50? 8.06

Given the compound CCNC(=O)[C@@H](NC(=O)c1ccccc1)[C@@H]1N[C@@H](C(=O)NCCNC(=O)[C@@H]2N[C@@H]([C@H](NC(=O)c3ccccc3)C(=O)NCC)SC2(C)C)C(C)(C)S1 , what is its reported pIC50? 6.41

Given the compound CN(Cc1ccccc1)C(=O)[C@@H](NC(=O)Cc1ccccc1)[C@@H]1N[C@@H](C(=O)NCCNC(=O)[C@@H]2N[C@@H]([C@H](NC(=O)Cc3ccccc3)C(=O)N(C)Cc3ccccc3)SC2(C)C)C(C)(C)S1 , what is its reported pIC50? 6.09

Given the compound CC1(C)S[C@H]([C@@H](CO)NC(=O)Cc2ccccc2)N[C@H]1C(=O)NCCNC(=O)[C@@H]1N[C@@H]([C@@H](CO)NC(=O)Cc2ccccc2)SC1(C)C , what is its reported pIC50? 6.85

###

- System: Human immunodeficiency virus 1
- Measurement Notes: Inhibitory effects on HIV-1 induced syncytium formation in C8166 cells
- Type: functional, organism-based
- Condition Parameters: Human immunodeficiency virus 1, C8166
Reported EC50 values for a set of molecules
Reply with just the number (in nM).

As a guide, the following entries are already answered.
{"Chem Smiles": "CCNC(=O)[C@@H](NC(=O)c1ccccc1-c1ccccc1)[C@@H]1N[C@@H](C(=O)NCCNC(=O)[C@@H]2N[C@@H]([C@H](NC(=O)c3ccccc3-c3ccccc3)C(=O)NCC)SC2(C)C)C(C)(C)S1", "Assay Readout": "EC50", "Endpoint Unit": "nM", "Numeric Value": 170}
{"Chem Smiles": "CCNC(=O)[C@@H](NC(=O)Cc1ccccc1)[C@@H]1N[C@@H](C(=O)NCCNC(=O)[C@@H]2N[C@@H]([C@H](NC(=O)Cc3ccccc3)C(=O)NCC)SC2(C)C)C(C)(C)S1", "Assay Readout": "EC50", "Endpoint Unit": "nM", "Numeric Value": 1100}
{"Chem Smiles": "CC1(C)S[C@H]([C@H](NC(=O)Cc2ccccc2)C(=O)NCc2ccccc2)N[C@H]1C(=O)NCCNC(=O)[C@@H]1N[C@@H]([C@H](NC(=O)Cc2ccccc2)C(=O)NCc2ccccc2)SC1(C)C", "Assay Readout": "EC50", "Endpoint Unit": "nM", "Numeric Value": 60}
{"Chem Smiles": "CC1(C)S[C@H]([C@H](NC(=O)Cc2ccccc2)C(=O)N2CCCCC2)N[C@H]1C(=O)NCCNC(=O)[C@@H]1N[C@@H]([C@H](NC(=O)Cc2ccccc2)C(=O)N2CCCCC2)SC1(C)C", "Assay Readout": "EC50", "Endpoint Unit": "nM", "Numeric Value": 230}

Would you kindly look at the next entry?
Given the molecule CCNC(=O)[C@@H](NC(=O)Cc1cccs1)[C@@H]1N[C@@H](C(=O)NCCNC(=O)[C@@H]2N[C@@H]([C@H](NC(=O)Cc3cccs3)C(=O)NCC)SC2(C)C)C(C)(C)S1 , what is its reported EC50? 5200

###

- Assayed System: Human immunodeficiency virus type 1 protease (Human immunodeficiency virus 1, UniProt Q72874)
pIC50: −log10 of the molar value.
Would you mind labelling by pIC50? At or over 8 is yes (1), under is no (0).

Assess whether reported pIC50 for CCNC(=O)[C@@H](NC(=O)CCc1ccccc1)[C@@H]1N[C@@H](C(=O)NCCNC(=O)[C@@H]2N[C@@H]([C@H](NC(=O)CCc3ccccc3)C(=O)NCC)SC2(C)C)C(C)(C)S1 sits at 8 or higher. yes (1)

Assess whether reported pIC50 for CC1(C)S[C@H]([C@H](NC(=O)Cc2ccccc2)C(=O)OCc2ccccc2)N[C@H]1C(=O)NCCNC(=O)[C@@H]1N[C@@H]([C@H](NC(=O)Cc2ccccc2)C(=O)OCc2ccccc2)SC1(C)C sits at 8 or higher. no (0)

Assess whether reported pIC50 for CN(C)c1ccc(CNC(=O)[C@@H](NC(=O)c2ccccc2-c2ccccc2)[C@@H]2N[C@@H](C(=O)NCCNC(=O)[C@@H]3N[C@@H]([C@H](NC(=O)c4ccccc4-c4ccccc4)C(=O)NCc4ccc(N(C)C)cc4)SC3(C)C)C(C)(C)S2)cc1 sits at 8 or higher. yes (1)
